- System: Huh-Luc-Neo cells
- methodSummary: Cell Titer-Glo Cell Viability Assay
- Assay type: cell-based, human
- conditionSet: inhibition of cell viability at 50 μM, 2 doses, conditions identical to HCV Replicon RNA Assay
- Description: Day 2, Reagent Preparation and Luciferase Assay: The Bright-Glo Luciferase Assay Buffer (Promega) is thawed and equilibrated to room temperature prior to use. The lyophilized Bright-Glo Luciferase Assay Substrate is equilibrated to room temperature prior to use. […] The well contents are mixed for 5 min. on an orbital shaker at room temperature to induce cell lysis and the luminescence is then measured using a luminometer. The data is analyzed and IC50s are determined using GraphPad Prism 4 software. […]
measuredAttribute: Toxicity % Inhibition at 50 μM (2 doses) (%)
# number only, unit % dropped from output

Example compounds with recorded Toxicity % Inhibition at 50 μM (2 doses):
lineNotation: C=CCNc1ccc([N+](=O)[O-])cc1-c1nn(C)cc1C#CC(C)(C)C
experimentalTarget: Huh-Luc-Neo cells
readoutNumber: 38.8

lineNotation: Cn1cc(-c2ccc(O)c(-c3nn(C)cc3C#CC(C)(C)C)c2)cn1
experimentalTarget: Huh-Luc-Neo cells
readoutNumber: 6.1

Problem: Provide Toxicity % Inhibition at 50 μM (2 doses), system Huh-Luc-Neo cells, entry `Cn1cc(C#Cc2ccc(N)cc2)c(-c2ccccc2O)n1`
Result: 21.8

Problem: Provide Toxicity % Inhibition at 50 μM (2 doses), system Huh-Luc-Neo cells, entry `Cn1cc(C#CC(C)(C)C)c(-c2cc([N+](=O)[O-])ccc2NCC(C)(C)CNc2ccc([N+](=O)[O-])cc2-c2nn(C)cc2C#CC(C)(C)C)n1`
Result: 15.8
